# Experimental system: menin (Homo sapiens, UniProt O00255, T541A)
# Construct: Menin (a.a. 1-610-6×his tag)
# Sequence (O00255 with tags, fused parts or gaps T541A): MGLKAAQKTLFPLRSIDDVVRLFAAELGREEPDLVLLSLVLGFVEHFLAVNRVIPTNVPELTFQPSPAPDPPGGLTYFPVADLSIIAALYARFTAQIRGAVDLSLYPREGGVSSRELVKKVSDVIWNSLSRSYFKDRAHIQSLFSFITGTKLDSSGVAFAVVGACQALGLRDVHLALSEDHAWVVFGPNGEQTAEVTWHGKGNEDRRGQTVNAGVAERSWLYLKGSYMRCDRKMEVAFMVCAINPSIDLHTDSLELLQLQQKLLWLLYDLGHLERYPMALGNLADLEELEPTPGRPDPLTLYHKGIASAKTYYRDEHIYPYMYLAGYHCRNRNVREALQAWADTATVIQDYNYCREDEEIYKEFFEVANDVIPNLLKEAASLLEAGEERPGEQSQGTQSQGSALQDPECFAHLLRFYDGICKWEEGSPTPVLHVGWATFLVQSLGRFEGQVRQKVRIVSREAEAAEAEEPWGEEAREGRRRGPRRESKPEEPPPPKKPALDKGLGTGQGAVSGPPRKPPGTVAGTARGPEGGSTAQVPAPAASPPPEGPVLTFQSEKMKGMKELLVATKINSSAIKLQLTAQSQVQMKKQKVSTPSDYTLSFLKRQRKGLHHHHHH
# Protocol summary: Menin/MLL homogenous time-resolved fluorescence (HTRF) assay
# Type: binding
# Cond: location 2; read-out: (2) location 2 Menin HTRF assay (IC50 (nM))
Readout kind: IC50 (nM)

a. CNC(=O)Cn1cc(NC2CC3(CCN(c4ncnc5sc(CC(F)(F)F)cc45)C3)C2)cn1 (single isomer, unassigned) [Compound 355]
b. O=c1[nH]c2ccc(NC3CC4(CCN(c5ncnc6sc(CC(F)(F)F)cc56)C4)C3)cc2[nH]1 (mixture of isomers) [Compound 319]
c. CN(C(=O)c1ccc(NC2CC3(CCN(c4ncnc5sc(CC(F)(F)F)cc45)C3)C2)cc1)S(C)(=O)=O (single isomer, unassigned) [Compound 363]
Hey, can you sort those compounds up there by IC50, smallest first? // respond by listing labels in the order requested
b, c, a
